Taken from PubChem BioAssay.

system: XIP peptide (Xip251-270); test: compounds binding XIP fragment 251-270 – biochemical, small-molecule microarray, fluorescence 635/667 nm, 0.5 µg/mL protein, primary screen (AID 1183); conditions: fluorescence 635 nm, higher = more signal
Please enter yes (1) where composite z-score is greater than or equal to 0.8, and no (0) where it is lower.

Observe how each entry below is paired with its result.
C[N+](C)(C)CCCC[C@@H]1NC(=O)[C@@H]2C[C@H](C(=O)NCCCCCCNC(=O)CS)[C@H](c3ccc(O)cc3)N2C1=O = no (0)
CC1CC/C=C\[C@H]2OC34C=CCN(c5ccc6ccccc6c5)C(=O)[C@H]3N(CCO)C(=O)[C@@H]4C2C(=O)O1 (stereo not given in full) = no (0)
COc1ccc([Si](C)(C)[C@H]2[C@H](CC(=O)N3CCC[C@H]3CO)O[C@@]3(C(=O)N(Cc4cccc(N5CCOC5=O)c4)c4ccccc43)[C@@H]2C)cc1 = no (0)
COC(=O)c1c(CC[C@@H](CO)NC(=O)NCCc2c[nH]c3ccccc23)oc(C(=O)Cc2ccccc2)c1C(=O)OC = no (0)
COC(=O)[C@@]1(Cc2ccc(OC)cc2)[C@H]2c3cc(C(=O)N4CCCC4)n(CCc4ccc(O)c(O)c4)c3C[C@H]2CN1C(=O)c1ccccc1 = yes (1)

Is composite z-score at least 0.8? Consider "C=CCNC(=O)[C@@H]1[C@H]2C(=O)O[C@H](c3ccccc3)[C@H](c3ccccc3)N2[C@H](c2ccc(OCCO)cc2)[C@@]12C(=O)N(C(=O)OCCOC)c1ccc(C#CCNC(N)=O)cc12"
yes (1)

Identify whether the reported composite z-score of the following compound is 0.8 or greater: "COC(=O)[C@]1(CCC(=O)OC(C)(C)C)N=C(c2ccc(OCCCO)cc2)O[C@@H]1c1ccccc1"
no (0)

State whether the measured composite z-score reaches 0.8, counting equality as reaching it, for OB1C=CCC(CCc2ccccc2)O1 (stereo not given)
yes (1)

Check if composite z-score >= 0.8 (inclusive). Item: "O=C(NCc1ccccc1)[C@@H]1c2ccccc2C(=O)N(C2Cc3ccccc3C2)[C@H]1c1ccc(CO)cc1"
no (0)

Does "CN(C)CCCC[C@@H]1NC(=O)[C@H]2C[C@@H](C(=O)NCCCCCN)[C@@H](c3cccc(OCCO)c3)N2C1=O" have a reported composite z-score of at least 0.8?
yes (1)

----------
Recorded composite z-score by entry
test: probe aNOTCH2 binding on compound microarray – biochemical, small-molecule microarray, 635/667 nm fluorescence, primary screen (AID 1121); settings: higher = more signal;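 further: score merges feature fluorescence read at 667 nm with its signal to noise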
Could you keep your reply to the number by itself?

Example entries begin here.
CO[C@H]1O[C@H](CO)[C@@H](OC(=O)Nc2cccc(F)c2)[C@H](OC(=O)Nc2ccccc2)[C@H]1OC(=O)Nc1ccccc1 = -0.0664
C[N+](C)(C)CCCC[C@@H]1NC(=O)[C@H]2C[C@@H](C(=O)NCCCCCCNC(=O)CS)[C@@H](c3ccc(O)cc3)N2C1=O = -0.0764

Now, please, on to the next molecule.
molecule "CN(C)CCCC[C@@H]1NC(=O)[C@H]2C[C@@H](C(=O)NCCCCCN)[C@@H](c3cccc(OCCO)c3)N2C1=O" , composite z-score observed: 0.41

----------
experiment: JC-1 mitochondrial signal, unstimulated myeloma cells – cell-based, JC-1 fluorescence, RPMI8226, 24 h, 100 nL compound, profiling panel (AID 1169); settings: JC-1 mitochondrial potential fluorescence, higher = more signal
Would you mind labelling by z-score? At or over -0.8 is MET, under is NOT MET.

Is it the case that CCCCN1CC=CC23O[C@@H]4C=CCOC(=O)[C@@H]4[C@H]2C(=O)N(CCCCCCO)[C@@H]3C1=O (some centres undefined) has z-score reaching or exceeding -0.8?
MET

Say whether O=C1OCCC=C[C@H]2OC34C=CCN(c5ccc(Cl)cc5)C(=O)[C@H]3N(CCCO)C(=O)[C@@H]4C12 (some centres undefined) shows z-score of -0.8 or more.
MET

hey, is z-score for this one >= -0.8? "COc1ccc(C(=O)Nc2ccc(CN3C(=O)[C@]4(O[C@H](CC(=O)N5CCC[C@H]5CO)[C@@H]([Si](C)(C)c5ccc(OC)cc5)[C@@H]4C)c4ccccc43)cc2)cc1"
NOT MET

Please tell me: is the molecule "C=CCN1C(=O)[C@]2(Cc3ccccc3)N=C(c3ccc(OCCCO)cc3)O[C@@H]2c2ccccc21" at or over -0.8 in terms of z-score?
NOT MET

Can O=C1C2C=CC(C(O)c3ccc(-c4ccccc4)s3)N(Nc3ccccc3)C2C(=O)N1c1ccccc1 (centres undefined) be said to have z-score at or above -0.8?
MET

Given the entry C=CCC(OC(C)=O)[C@@H]1[C@@H](N(Cc2ccc(-c3cccc(C(F)(F)F)c3)o2)C(=O)Cc2ccc(OC)cc2)c2cc(OCCCO)ccc2N1C(=O)c1ccc2ccccc2c1 (some centres undefined) , answer whether its z-score meets or surpasses -0.8.
MET

State whether the measured z-score reaches -0.8, counting equality as reaching it, for "C[N+](C)(C)CCCC[C@@H]1NC(=O)[C@H]2C[C@@H](C(=O)NCCCCCCNC(=O)CS)[C@@H](c3ccc(O)cc3)N2C1=O"
MET

Hi, just wondering whether "COc1ccc(CCNC(=O)[C@@]2(c3ccc([N+](=O)[O-])cc3)CC(=O)N(CC34CC5CC(CC(C5)C3)C4)[C@@H]2c2ccc(CO)cc2I)cc1" shows z-score of -0.8 or higher.
NOT MET

Is reported z-score greater than or equal to -0.8 here: "CCOC(=O)C1=CC[C@H]2C(=O)N(c3ccccc3)C(=O)[C@@H]12"
MET

Kindly determine if z-score recorded for O=C1C2C=CC(C(O)c3c(F)cccc3Cl)N(Nc3ccccc3F)C2C(=O)N1c1ccccc1 (centres undefined) is above or exactly -0.8.
MET

Has "COC(=O)[C@@]1(Cc2ccc(OC)cc2)[C@H]2c3cc(C(=O)N4CCCC4)n(CCc4ccc(O)c(O)c4)c3C[C@H]2CN1C(=O)c1ccccc1" a recorded z-score greater than or equal to -0.8?
MET

Test whether the molecule "COCCOC(=O)N1C(=O)[C@@]2(c3cc(C#CC4(O)CCCCCC4)ccc31)[C@H](c1ccccc1OCCO)N1[C@H](c3ccccc3)[C@H](c3ccccc3)OC(=O)[C@H]1[C@@H]2C(=O)N1CCc2cc(OC)c(OC)cc2C1" records z-score of -0.8 or higher.
MET

Answer whether z-score of "C#CCN1[C@@H](Cc2ccc(O)cc2)C(=O)O[C@H](Cc2ccccc2)[C@@H]1/C=C/C1CC1" is greater than or equal to -0.8.
NOT MET

----------
tested on: Sam68 (KHDRBS1); experiment: compounds binding KHDRBS1 protein – biochemical, small-molecule microarray, 635 nm fluorescence, primary screen (AID 1125); settings: higher = more signal;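 further: score merges 667 nm channel intensity with signal to noise over triplicate slides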
OUTCOME MEASURE: composite z-score
API note: the answer field is a bare number with no unit suffix.

Consider the worked cases shown below.
COCCOC(=O)N1C(=O)[C@@]2(c3cc(C#CC4(O)CCCCCC4)ccc31)[C@H](C(=O)Nc1nc3ccccc3s1)[C@H]1C(=O)O[C@H](c3ccccc3)[C@H](c3ccccc3)N1[C@@H]2c1ccc(OCCO)cc1 = 1.3
CCOC(=O)C[C@H]1[C@H](OC(=O)c2ccc(-c3ccccc3)cc2)[C@@H](NC(=O)c2ccccc2)c2cc(OCCCO)ccc2N1C(=O)Cc1ccc(OC)cc1 = -0.254
C#CCN(C/C=C/c1ccccc1)[C@H](CO)c1ccccc1 = -0.142
COCCCNC(=O)[C@@]1(Sc2ccc(C)cc2)CC(=O)N(Cc2ccccc2Cl)[C@@H]1c1ccc(CO)cc1 = 1.1

# input for lookup
Measured composite z-score of "CC(C)(C)OC(=O)CC[C@]1(C(N)=O)N=C(c2ccc(OCCCO)cc2)O[C@H]1c1ccccc1" : 1.25

----------
Each entry below carries its reported composite z-score.
biological target: Torsin-1A-interacting protein 1 (Homo sapiens) (UniProt Q5JTV8); experiment: compound microarray binding of lysate hLAP1 – cell lysate, small-molecule microarray, COS7 lysate, 635/667 nm fluorescence, primary screen (AID 1116); conditions: 635 nm fluorescence, higher = more signal
Sequence (Q5JTV8 whole entry, looked up): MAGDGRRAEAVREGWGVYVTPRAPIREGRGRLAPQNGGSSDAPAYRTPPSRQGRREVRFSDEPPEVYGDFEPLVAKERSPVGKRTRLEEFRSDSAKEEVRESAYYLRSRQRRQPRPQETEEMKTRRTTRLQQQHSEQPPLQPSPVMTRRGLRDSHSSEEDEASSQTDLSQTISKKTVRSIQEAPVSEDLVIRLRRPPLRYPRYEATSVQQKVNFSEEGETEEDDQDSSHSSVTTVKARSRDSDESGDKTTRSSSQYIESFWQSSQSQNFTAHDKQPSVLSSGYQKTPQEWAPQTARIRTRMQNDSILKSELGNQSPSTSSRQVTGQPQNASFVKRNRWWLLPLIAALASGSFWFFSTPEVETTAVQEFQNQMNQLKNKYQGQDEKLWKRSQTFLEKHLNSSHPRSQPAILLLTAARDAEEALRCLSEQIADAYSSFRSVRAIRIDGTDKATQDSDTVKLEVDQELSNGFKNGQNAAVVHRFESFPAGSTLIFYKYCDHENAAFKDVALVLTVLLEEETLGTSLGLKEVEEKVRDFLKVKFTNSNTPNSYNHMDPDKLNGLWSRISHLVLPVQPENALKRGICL
No unit in the answer, only the number.

Example entries begin here.
COCCCNC(=O)[C@@]1(Cc2ccccc2)N=C(c2ccc(OCCCO)cc2)O[C@H]1c1ccccc1CN=[N+]=[N-] = 2.35
C=C(CCCC)C(=O)CC[C@@H](OC(C)=O)c1ccc(CO)o1 = 2.04
O=C1C2C=CC(C(O)C=Cc3ccc([N+](=O)[O-])cc3)N(n3cnnc3)C2C(=O)N1Cc1ccccc1 (stereo unspecified) = 0.832
O=C1O[C@@H](c2ccccc2)[C@@H](c2ccccc2)N2[C@@H](c3ccccc3OCCO)[C@]3(C(=O)Nc4ccccc43)[C@@H](C(=O)O)[C@H]12 = 0.584
CCCNC(=O)[C@@]1(Sc2ccc(C)cc2)CC(=O)N(Cc2ccccc2C(F)(F)F)[C@@H]1c1ccc(CO)cc1I = 0.332

Query "CC(=CC1CCCCC1)[C@@H](NC(=O)c1cccnc1)c1ccc(-c2ccccc2)cc1" on Torsin-1A-interacting protein 1 (Homo sapiens) (UniProt Q5JTV8); composite z-score returned: -0.217
